Property: IC50; scope: individual molecules
SYSTEM_NAME: Recombinant human renin (Homo sapiens)
Construct: isolate the active form (residues 67-406); made in house; host or cells: FreeStyle 293-F cells (transient expression of pcDNA3.1(+)/hREN)
PROTOCOL_SUMMARY: In vitro enzymatic activity assay of renin inhibitors (fluorogenic peptide substrate)
Format: biochemical
RUN_CONDITIONS: read-out: IC50 of Exemplified Compounds Against Renin
Description: Test compounds in varying concentrations may be reacted with recombinant human renin in the presence of substrate, e.g., QXL520-γ-Abu-[…](HiLyteFluo488)-Arg-OH (Anaspec, San Jose, Calif.). […] Inhibition constants (IC50) may be calculated by non-linear curve fitting of the compound concentrations and fluorescence intensities to the standard IC50 equation. […] The fluorescence intensity is determined upon the addition of substrate and determined again after incubation at 37° C. for one hour. […]

COCCCn1c([C@@H]2CCCN(C(=O)C[C@H](N)Cc3ccc(-c4ccco4)cc3)C2)nc2ccccc21 [Compound 146]; < 100 nM
COCCCn1c([C@@H]2CCCN(C(=O)C[C@H](N)Cc3ccc(-c4ccc5oc(=O)[nH]c5c4)cc3)C2)nc2c(F)cccc21 [Compound 460]; < 100 nM
COCCCn1c([C@@H]2CCCN(C(=O)C[C@H](N)c3cccnc3)C2)nc2ccccc21 [Compound 119]; 100 to 1000 nM
COCCCn1c([C@@H]2CCCN(C(=O)[C@@H]3CN(C(=O)C(C)C)C[C@H]3N)C2)nc2ccccc21 [Compound 396]; > 1000 nM
COCCCn1c([C@@H]2CCCN(C(=O)[C@@H]3CN(S(=O)(=O)c4cccc(-c5csc(C)n5)c4)C[C@H]3N)C2)nc2ccccc21 [Compound 364]; 100 to 1000 nM
COCCCn1c([C@@H]2CCCN(C(=O)C[C@H](N)Cc3ccc(-c4ccc(NC(=O)CO)cc4)cc3)C2)nc2ccccc21 [Compound 198]; < 100 nM

Reported IC50, molecule CCOc1nc(-c2ccc(C[C@@H](N)CC(=O)N3CCC[C@@H](c4nc5ccccc5n4CCCOC)C3)cc2)cs1 [Compound 200] : ____
< 100 nM

Now the molecule COCCCn1c([C@@H]2CCCN(C(=O)C[C@H](N)Cc3ccc(-c4ccc5c(c4)OCCO5)cc3)C2)nc2c(F)cccc21 [Compound 455]
< 100 nM

Now the molecule N[C@@H](CC(=O)N1CCCC(c2nc3ccccc3[nH]2)C1)Cc1ccc2ccccc2c1 (stereo partly shown) [Compound 44]
> 1000 nM

Now the molecule CC(=O)NCCn1c([C@@H]2CCCN(C(=O)C[C@H](N)Cc3ccc(-c4ccc5oc(=O)[nH]c5c4)cc3)C2)nc2ccccc21 [Compound 467]
100 to 1000 nM

---

SYSTEM_NAME: Recombinant human renin (Homo sapiens, UniProt P00797)
Construct: isolate the active form (residues 67-406); made in house; host or cells: FreeStyle 293-F cells (transient expression of pcDNA3.1(+)/hREN)
Sequence (P00797 67-406): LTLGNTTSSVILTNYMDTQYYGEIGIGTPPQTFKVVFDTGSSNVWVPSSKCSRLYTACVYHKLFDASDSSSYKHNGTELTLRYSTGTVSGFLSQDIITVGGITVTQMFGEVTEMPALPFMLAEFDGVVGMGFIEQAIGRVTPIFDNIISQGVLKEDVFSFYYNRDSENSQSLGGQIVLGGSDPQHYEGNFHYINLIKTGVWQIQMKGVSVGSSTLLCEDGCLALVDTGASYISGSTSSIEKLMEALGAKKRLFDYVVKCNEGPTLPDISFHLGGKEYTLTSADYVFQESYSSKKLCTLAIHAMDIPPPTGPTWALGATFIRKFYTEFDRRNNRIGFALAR
PROTOCOL_SUMMARY: In vitro enzymatic activity assay of renin inhibitors (fluorogenic peptide substrate)
Format: biochemical
RUN_CONDITIONS: read-out: IC50 of Exemplified Compounds Against Renin
pIC50: −log10 of the molar value.
QUANTITY_KIND: pIC50

Use the examples below as a reference point.
COCCCn1c([C@@H]2CCCN(C(=O)[C@@H]3CN(S(=O)(=O)c4ccc5ccccc5c4)C[C@H]3N)C2)nc2ccccc21; 6.00 to 7.00
CC(=O)NCCn1c([C@@H]2CCCN(C(=O)C[C@H](N)Cc3ccc(-c4ccc5c(c4)OC(F)(F)O5)cc3)C2)nc2c(C)cccc21; 6.00 to 7.00
COCCCn1c([C@@H]2CCCN(C(=O)C[C@H](N)Cc3ccc(-c4ccccc4)cc3)C2)nc2cccc(Cl)c21; > 7.00
COCCCn1c([C@@H]2CCCN(C(=O)[C@@H]3CN(S(=O)(=O)c4ccc(Br)cc4Cl)C[C@H]3N)C2)nc2ccccc21; 6.00 to 7.00
CCOC(=O)c1ccccc1NC(=O)NC[C@@H](N)CC(=O)N1CCC[C@@H](c2nc3ccccc3n2CCCOC)C1; < 6.00

// fetch Recombinant human renin (Homo sapiens, UniProt P00797) pIC50 for COCCCn1c([C@@H]2CCCN(C(=O)C[C@H](N)Cc3ccc(-c4ccc(NC(C)=O)cc4)cc3)C2)nc2c(F)cccc21
> 7.00

---

SYSTEM_NAME: Recombinant human renin (Homo sapiens)
Construct: isolate the active form (residues 67-406); made in house; host or cells: FreeStyle 293-F cells (transient expression of pcDNA3.1(+)/hREN)
PROTOCOL_SUMMARY: In vitro enzymatic activity assay of renin inhibitors (fluorogenic peptide substrate)
Type: biochemical
RUN_CONDITIONS: read-out: IC50 of Exemplified Compounds Against Renin
Property: IC50; scope: individual molecules

Use the examples below as a reference point.
COCCCn1c([C@@H]2CCCN(C(=O)[C@@H]3CN(C(=O)c4ccc5ccccc5c4)C[C@H]3N)C2)nc2ccccc21; 100 to 1000 nM
COCCCn1c([C@@H]2CCCN(C(=O)C[C@H](N)CNC(=O)C3CCCC3)C2)nc2ccccc21; > 1000 nM
COCCCn1c([C@@H]2CCCN(C(=O)C[C@H](N)Cc3cccnc3)C2)nc2ccccc21; > 1000 nM
COCCCn1c([C@@H]2CCCN(C(=O)[C@@H]3CN(S(=O)(=O)c4ccccc4OC)C[C@H]3N)C2)nc2ccccc21; 100 to 1000 nM

Reported IC50, molecule N[C@@H](CC(=O)N1CCCC(c2nc3ccccc3[nH]2)C1)c1cccc(Cl)c1 (stereo partly shown) : ____
> 1000 nM

Now the molecule COC(=O)[C@H](Cc1ccccc1)NC(=O)N1CCCC(c2nc3ccccc3[nH]2)C1 (stereo partly shown)
> 1000 nM

Now the molecule COCCCn1c([C@@H]2CCCN(C(=O)C[C@H](N)Cc3ccc(N4CCN(c5ccccc5)C(=O)C4)cc3)C2)nc2ccccc21
100 to 1000 nM

---

Property: pIC50; scope: individual molecules
SYSTEM_NAME: Recombinant human renin (Homo sapiens, UniProt P00797)
Construct: isolate the active form (residues 67-406); made in house; host or cells: FreeStyle 293-F cells (transient expression of pcDNA3.1(+)/hREN)
Sequence (P00797 67-406): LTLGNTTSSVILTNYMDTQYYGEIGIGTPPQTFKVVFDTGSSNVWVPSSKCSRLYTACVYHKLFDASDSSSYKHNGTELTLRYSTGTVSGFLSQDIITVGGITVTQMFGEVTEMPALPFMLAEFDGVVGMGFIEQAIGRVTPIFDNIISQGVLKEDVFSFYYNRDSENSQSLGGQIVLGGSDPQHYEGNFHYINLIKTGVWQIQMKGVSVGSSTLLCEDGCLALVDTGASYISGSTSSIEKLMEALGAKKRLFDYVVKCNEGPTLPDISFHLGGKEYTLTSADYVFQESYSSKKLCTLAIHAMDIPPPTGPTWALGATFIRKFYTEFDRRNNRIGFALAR
PROTOCOL_SUMMARY: In vitro enzymatic activity assay of renin inhibitors (fluorogenic peptide substrate)
Format: biochemical
RUN_CONDITIONS: read-out: IC50 of Exemplified Compounds Against Renin
pIC50: −log10 of the molar value.

Use the examples below as a reference point.
COCCCn1c([C@@H]2CCCN(C(=O)C[C@H](N)Cc3ccc(-c4ccc(C(=O)NCCO)cc4)cc3)C2)nc2ccccc21; > 7.00
COCCCn1c([C@@H]2CCCN(C(=O)C[C@H](N)Cc3ccc(-c4ccc(C(=O)N5CC[C@@H](O)C5)cc4)cc3)C2)nc2ccccc21; > 7.00
COCCCn1c([C@@H]2CCCN(C(=O)C[C@H](N)Cc3ccc(-c4ccoc4)cc3)C2)nc2ccccc21; > 7.00

Let us examine a further case.
Reported pIC50, molecule COCCCn1c([C@@H]2CCCN(C(=O)C[C@H](N)CNC(=O)c3ccccc3OC)C2)nc2ccccc21 : ____
< 6.00

---

SYSTEM_NAME: Recombinant human renin (Homo sapiens, UniProt P00797)
Construct: isolate the active form (residues 67-406); made in house; host or cells: FreeStyle 293-F cells (transient expression of pcDNA3.1(+)/hREN)
PROTOCOL_SUMMARY: In vitro enzymatic activity assay of renin inhibitors (fluorogenic peptide substrate)
Format: biochemical
RUN_CONDITIONS: read-out: IC50 of Exemplified Compounds Against Renin
Property: IC50; scope: individual molecules

Use the examples below as a reference point.
COCCCn1c([C@@H]2CCCN(C(=O)C[C@H](N)CNS(=O)(=O)c3ccccc3Cl)C2)nc2ccccc21 [Compound 306]; 100 to 1000 nM
COCCCn1c([C@@H]2CCCN(C(=O)C[C@H](N)c3cccc(OC)c3)C2)nc2ccccc21 [Compound 121]; > 1000 nM

Let us examine a further case.
Reported IC50, molecule COCCCn1c([C@@H]2CCCN(C(=O)[C@@H]3CN(C(=O)c4ccccc4C(=O)OC)C[C@H]3N)C2)nc2ccccc21 [Compound 424] : ____
> 1000 nM
